test system: Fibroblast; experiment: Multiplex assay against human fibroblast; type: toxicity, cell-based; conditions: 12 h, 1 µM, compound concentration 1 uM, replicate 1
MEASURED PROPERTY: Population Normal (%)
Quick note: give the figure in %, leave out the unit.

• O=C1NCN(c2ccccc2)C12CCN(CCCOc1ccc(F)cc1)CC2 [SPIRAMIDE] = 84

The compound listed as Cc1nc(-c2ccc(-c3ccc(C(=O)N4CCc5cc6c(cc54)C4(CCN(C)CC4)CO6)cc3)c(C)c2)no1 has a reported Population Normal (%) of 92

The compound listed as CN1CCC[C@@H]1CCO[C@](C)(c1ccccc1)c1ccc(Cl)cc1.O=C(O)/C=C/C(=O)O [CLEMASTINE FUMARATE] has a reported Population Normal (%) of 79

The compound listed as CN(C)C(=O)/C(C#N)=C/c1ccc(-c2nc3cnc4[nH]ccc4c3n2C2CCCCC2)o1 has a reported Population Normal (%) of 80

The compound listed as NC(=O)Nc1cc(-c2cccc(F)c2)sc1C(=O)N[C@H]1CCCNC1 has a reported Population Normal (%) of 85

The compound listed as CN1CCN(c2ccc(OC(F)(F)F)c(Nc3ncc4c(n3)-c3c(c(C(N)=O)nn3CCO)CC4)c2)CC1 has a reported Population Normal (%) of 80

====

system: U2OS; assay: Multiplex assay against U2OS; format: toxicity, cell-based; conditions: human, 48 h, 10 µM, compound concentration 10 uM, replicate 2
Below, each of the compounds is paired with its reported Population Pyknosed Nuclei (%) value.
Quick note: give the figure in %, leave out the unit.

As a guide, the following entries are already answered.
* OC1(c2ccc(Cl)cc2)CCN(Cc2c[nH]c3ccccc23)CC1 | 54
* Cn1cc(-c2[nH]c3cc(NC(=O)[C@H](N)C4CCCCC4)cc4c3c2C=NNC4=O)cn1 | 28
* Cl.N#Cc1ccc2[nH]cc(CCCCN3CCN(c4ccc5oc(C(N)=O)cc5c4)CC3)c2c1 [VILAZODONE HYDROCHLORIDE] | 68

The compound listed as COc1cccc([C@@H](C)NCCCc2ccccc2Cl)c1.Cl [TECALCET HYDROCHLORIDE] has a reported Population Pyknosed Nuclei (%) of 29

The compound listed as c1cn2cc(-c3ccc4cn[nH]c4c3)nc(Nc3ccc(N4CCOCC4)cc3)c2n1 [ENTOSPLETINIB] has a reported Population Pyknosed Nuclei (%) of 63

The compound listed as O=C1NCN(c2ccccc2)C12CCN(CCCOc1ccc(F)cc1)CC2 [SPIRAMIDE] has a reported Population Pyknosed Nuclei (%) of 7

The compound listed as C[C@@]1(C(=O)Nc2ccc(F)nc2)CCCN1c1nc(Nc2cc(C3CC3)n[nH]2)c2cccn2n1 [BMS-754807] has a reported Population Pyknosed Nuclei (%) of 45

The compound listed as CN1CCN(CCOc2cc(OC3CCOCC3)c3c(Nc4c(Cl)ccc5c4OCO5)ncnc3c2)CC1 [SARACATINIB] has a reported Population Pyknosed Nuclei (%) of 37

The compound listed as CC(C)NCC(O)COc1ccc(CCOCC2CC2)cc1.Cl (configuration not stated) [BETAXOLOL HYDROCHLORIDE] has a reported Population Pyknosed Nuclei (%) of 15

The compound listed as Cc1c(-c2ccc(O)cc2)n(Cc2ccc(OCCN3CCCCCC3)cc2)c2ccc(O)cc12 [BAZEDOXIFENE] has a reported Population Pyknosed Nuclei (%) of 37

The compound listed as C[C@@H](NCCCc1cccc(C(F)(F)F)c1)c1cccc2ccccc12.Cl [CINACALCET HYDROCHLORIDE] has a reported Population Pyknosed Nuclei (%) of 45

The compound listed as CN(C)C(=O)/C(C#N)=C/c1ccc(-c2nc3cnc4[nH]ccc4c3n2C2CCCCC2)o1 has a reported Population Pyknosed Nuclei (%) of 16
